// provenance: PubChem BioAssay (NCI)

# Tested on: MCF7 breast
# ASSAY_INFO: NCI-60 one-dose screen, 48 h (100 = growth as untreated, 0 = no growth, -100 = all killed)
# PROTOCOL_CONDITIONS: 10 µM unless noted
Compounds without any hit were thinned out: in the full panel of roughly 83,000, 20% have a hit.
Label rule, in plain words: growth of 60% and up is fulfilled, under 60% is not fulfilled.

Check out these entries, answers already filled in.
>  <COMPOUND>
O=C(Nc1cccc2ccccc12)NC1CC1

>  <CLASS_LABEL>
fulfilled

$$$$
>  <COMPOUND>
O=C(Nc1ccc(Oc2cccc(Cl)c2)c(Cl)c1)c1cnccn1

>  <CLASS_LABEL>
not fulfilled

$$$$
>  <COMPOUND>
CCCCCC(/C=N\NC(=S)N/N=C/C(=C/c1ccccc1)CCCCC)=C\c1ccccc1

>  <CLASS_LABEL>
fulfilled

$$$$
>  <COMPOUND>
COC1/C=C/OC2(C)Oc3c(C)c(O)c4c(O)c(c(/C=N/Nc5ccc([N+](=O)[O-])cc5[N+](=O)[O-])c(O)c4c3C2=O)NC(=O)C(C)=C/C=C/C(C)C(O)C(C)C(O)C(C)C(OC(C)=O)C1C (centres undefined)

>  <CLASS_LABEL>
not fulfilled

$$$$
>  <COMPOUND>
Cc1cn(-c2cc(NC(=O)c3cccc(C#Cc4cccc5[nH]nc(N)c45)c3)cc(C(F)(F)F)c2)cn1

>  <CLASS_LABEL>
not fulfilled

$$$$
>  <COMPOUND>
COC1=CC(c2ccc[nH]2)=N/C1=C\c1[nH]c(C)c(C)c1CCC(=O)OCc1ccccc1

>  <CLASS_LABEL>
not fulfilled

$$$$
>  <COMPOUND>
COC(=O)CC[C@@H]1O[C@@H](c2cccc(C(F)(F)F)c2)[C@@H](O)[C@H]1O

>  <CLASS_LABEL>
fulfilled

$$$$

### Prompt // inclusive: growth at least 60%? input: O=C1/C(=C\c2ccc3nccnc3c2)SC(=S)N1CCc1ccc(O)cc1
### Response not fulfilled
